system-name: recombinant human CYP11B2 (Homo sapiens)
Construct: made in house; host or cells: V79-4 cells (enzyme enriched microsomal fraction of cell lysates)
Sequence (P19099 25-503): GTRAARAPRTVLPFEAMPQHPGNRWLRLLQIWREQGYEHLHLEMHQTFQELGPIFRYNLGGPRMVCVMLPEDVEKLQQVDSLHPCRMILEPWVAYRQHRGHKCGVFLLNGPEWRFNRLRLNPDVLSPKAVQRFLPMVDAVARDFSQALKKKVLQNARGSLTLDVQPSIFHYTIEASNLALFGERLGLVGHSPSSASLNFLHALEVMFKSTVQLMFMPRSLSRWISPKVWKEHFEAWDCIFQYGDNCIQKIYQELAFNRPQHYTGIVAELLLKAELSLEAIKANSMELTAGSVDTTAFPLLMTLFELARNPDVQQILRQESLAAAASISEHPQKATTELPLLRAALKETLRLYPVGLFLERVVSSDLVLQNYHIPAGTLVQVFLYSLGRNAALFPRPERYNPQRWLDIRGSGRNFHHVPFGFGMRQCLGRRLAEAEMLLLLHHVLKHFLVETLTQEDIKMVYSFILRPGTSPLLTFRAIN
test-details: CYP11B2 enzyme assay, enzyme enriched microsomes from V79-4 cells, aldosterone by LC-MS
Assay type: biochemical
recorded-conditions: IC50 ranges; run at Km of 11-deoxycorticosterone; read-out: hCYP11B2 IC50
observation-type: IC50

mol-smiles	value-reported
CNc1ncncc1-c1nc2cc(F)c(F)cc2n1C1CC1	1 to 100 nM
CCc1ncncc1-c1nc2ccc(C#N)cc2n1C1CC1	1 to 100 nM
CC(C)c1ncncc1-c1nc2cc(F)c(F)cc2n1C1CC1	1 to 100 nM
N#Cc1ccc2nc(-c3cncnc3)n(C3CC3)c2c1	1 to 100 nM
CCn1c(-c2cncnc2C(F)(F)F)nc2cc(F)c(F)cc21	100 to 1000 nM
CCn1c(-c2cncnc2C(C)C)nc2ccc(C#N)cc21	1 to 100 nM
Fc1ccc2nc(-c3cncnc3C(F)F)n(C3CC3)c2c1	1 to 100 nM
Fc1cc2nc(-c3cncnc3NCC(F)(F)F)n(C3CC3)c2cc1F	1 to 100 nM
CCn1c(-c2cncnc2C(F)F)nc2ccc(C#N)cc21	1 to 100 nM
N#Cc1ccc2nc(-c3cncnc3C(F)(F)F)n(C3CC3)c2n1	1 to 100 nM
Cc1ncncc1-c1nc2ccc(F)cc2n1C1CC1	1 to 100 nM
CNc1ncncc1-c1nc2ccc(F)cc2n1C1CC1	1 to 100 nM
N#Cc1ccc2nc(-c3cncnc3)n(CC(F)(F)F)c2c1	1000 to 10000 nM
FC(F)(F)c1ncncc1-c1nc2cc(Cl)cnc2n1C1CC1	1000 to 10000 nM
CS(=O)(=O)c1ccc2nc(-c3cncnc3)n(C3CC3)c2c1	1000 to 10000 nM
FC(F)c1ncncc1-c1nc2ccc(Cl)nc2n1C1CC1	100 to 1000 nM
Cc1ncncc1-c1nc2cnc(C#N)cc2n1C1CC1	100 to 1000 nM
CCc1ncncc1-c1nc2ccc(F)c(F)c2n1C1CC1	1 to 100 nM
CCn1c(-c2cncnc2C(F)(F)F)nc2ccc(Cl)nc21	100 to 1000 nM
CCn1c(-c2cncnc2C)nc2ccc(C#N)cc21	1 to 100 nM
CCc1ncncc1-c1nc2ccc(F)cc2n1CC	100 to 1000 nM
